Source listed as ChEMBL document CHEMBL2346564.

assay: Aqueous solubility of the compound in normal saline after 5 hrs by UV-spectrophotometric analysis; details: normal saline (aqueous solubility, as described)
Outcome label depends on solubility at 5 h relative to 800 µM: at/above gives yes (1), below gives no (0).

| molecule | discrete_label |
| --- | --- |
| CCCCC1OC(=O)c2cc(NC(=O)c3ccc(OCCCO[N+](=O)[O-])cc3)ccc21 (stereo not given) | no (0) |
| CCCCC1OC(=O)c2cc(NC(=O)c3cccc(OCCCO[N+](=O)[O-])c3)ccc21 (stereo not given) | yes (1) |
| CCCCC1OC(=O)c2cc(NC(=O)CCO[N+](=O)[O-])ccc21 (stereo not given) | yes (1) |
| CCCCC1OC(=O)c2cc(NC(=O)c3ccccc3OCCCO[N+](=O)[O-])ccc21 (stereo not given) | no (0) |
| CCCCC1OC(=O)c2ccccc21 (racemic) [RAC-3-N-BUTYLPHTHALIDE] | no (0) |
